Measured values drawn from patent US20240124444A1 for this set.

Tested on: C. parvum strain UGA1
Assay: C. parvum growth inhibition assay (Nluc luminescence in HCT-8 cells)
Assay type: cell-based, Cryptosporidium parvum
Conditions: Cryptosporidium parvum, HCT-8; single point inhibition @ 10 uM; read-out: % inh @ 10 uM C. parvum
# maps each entry to its inhibition at 10 µM

Could you share which inhibition at 10 µM value was measured for c1ncc(-c2cc3cnc(Nc4cnn(C5CCOCC5)c4)cc3[nH]2)o1 [Example 147] ?
67 to 100%

Could you share which inhibition at 10 µM value was measured for Cc1cc(-c2cc3cnc(NC(=O)C4CC4)cc3n2C)ccn1 [Example 83] ?
0 to 33%

Could you share which inhibition at 10 µM value was measured for CN(CC(F)(F)F)c1cc(-c2cc3cnc(NC4CCOCC4)cc3[nH]2)ncn1 [Example 44] ?
67 to 100%

Could you share which inhibition at 10 µM value was measured for CSc1ccc(Nc2cc3c(cn2)cc(-c2cnn(C)c2)n3C)cc1 [Example 193] ?
67 to 100%

Could you share which inhibition at 10 µM value was measured for Cc1nccc(-c2cc3cnc(NC(=O)c4cnn(C)c4)cc3[nH]2)n1 [Example 185] ?
67 to 100%
